This listing pairs binders with measured pKd.
system.tested: T1, cynomolgus CD200R1 with dual His-tags (cynomolgus, UniProt G7NZT0 25-266)
T1 construct: Captured on the SPR chip by an anti-histidine antibody; also called CCD200R1-his; cCD200R1-his; not shown: dual His-tags
T1 sequence: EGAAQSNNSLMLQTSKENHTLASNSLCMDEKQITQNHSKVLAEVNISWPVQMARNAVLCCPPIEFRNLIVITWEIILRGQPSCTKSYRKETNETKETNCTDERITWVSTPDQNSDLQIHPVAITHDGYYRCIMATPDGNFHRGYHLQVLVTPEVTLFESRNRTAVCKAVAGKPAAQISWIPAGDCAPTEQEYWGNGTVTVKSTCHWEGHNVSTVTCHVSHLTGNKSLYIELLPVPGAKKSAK
test: SPR (Biacore CM5), His-tagged antigen captured by anti-histidine antibody, antibody as analyte, 1:1 Langmuir fit
Protocol: For the experiment, 30 μg/mL of an anti-histidine antibody was conjugated to a CM5 biacore chip via an amine bond while allowing to flow at 10 μl/min (10,000 RU). Then, 0.25 μg/mL of human or cynomolgus CD200R1 with dual His-tags was captured onto the completed chip for 60 seconds, and the binding ability of each antibody was analyzed. […] The resulting graphs were fitted using a 1:1 Langmuir binding kinetic model (FIG. 16), and the kinetics of each antibody were calculated.
Interpret pKd as the negative base-10 log of the concentration measured in mol/L.

# example entries with known answers
binder	pKd
P001009v4 (antibody, V domains shown, P001009 with LC N31K (Kabat); also called P019001v4) VH: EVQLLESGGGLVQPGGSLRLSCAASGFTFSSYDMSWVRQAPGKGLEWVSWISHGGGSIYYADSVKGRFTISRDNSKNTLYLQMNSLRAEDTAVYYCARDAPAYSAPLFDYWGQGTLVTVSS VL: QSVLTQPPSASGTPGQRVTISCSGSSSNIGNKAVNWYQQLPGTAPKLLIYYDSNRPSGVPDRFSGSKSGTSASLAISGLRSEDEADYYCAAWDDSLSGYVFGGGTKLTVL	10.09
P001009v1 (antibody, V domains shown, P001009 with LC S52K and S94R (Kabat); also called P019001v1; P0001009v1) VH: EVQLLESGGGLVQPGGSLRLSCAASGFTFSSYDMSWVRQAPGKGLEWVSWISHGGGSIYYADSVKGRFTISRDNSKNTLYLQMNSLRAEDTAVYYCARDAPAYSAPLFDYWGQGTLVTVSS VL: QSVLTQPPSASGTPGQRVTISCSGSSSNIGNNAVNWYQQLPGTAPKLLIYYDKNRPSGVPDRFSGSKSGTSASLAISGLRSEDEADYYCAAWDDRLSGYVFGGGTKLTVL	9.58

Then there is this binder:
In: Which pKd is listed for P001009 (IgG) (antibody, V domains shown, also called P001009 WT; P001009 wt) VH: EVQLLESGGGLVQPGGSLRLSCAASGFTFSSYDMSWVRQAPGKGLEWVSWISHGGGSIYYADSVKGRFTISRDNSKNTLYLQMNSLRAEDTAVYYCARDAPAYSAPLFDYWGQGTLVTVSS VL: QSVLTQPPSASGTPGQRVTISCSGSSSNIGNNAVNWYQQLPGTAPKLLIYYDSNRPSGVPDRFSGSKSGTSASLAISGLRSEDEADYYCAAWDDSLSGYVFGGGTKLTVL ?
Out: 8.68
